Biological target: N-terminal HiBiT tagged BCL6 (Homo sapiens)
Construct: expressed in transfected cells; host or cells: HT1080 (ATCC CCL-121), stably transduced with lentivirus pLV-UBC-N-HiBiT-BCL6-PGK-puro
Assay: HiBiT based degradation assay
Format: cell-based
Details: HT1080 cells expressing N-terminal HiBiT tagged BCL6; 5 hours of incubation; BCL6 degradation normalized with DMSO control
MEASUREMENT_KIND: Ymin (5 hr)

COMPOUND	MEASUREMENT_KIND	RESULT
CNC(=O)COc1cc2cc(Nc3nc(N4CC5(CCC(Oc6ccc7c(C8CCC(=O)NC8=O)nn(C)c7c6)CC5)C4)ncc3Cl)cnc2n(C(C)C)c1=O (stereo not drawn)	Ymin (5 hr)	++++ (Ymin < 30%)
CNC(=O)COc1cc2cc(Nc3nc(N4CCN(CC5CCN(c6cccc7c(C8CCC(=O)NC8=O)nn(C)c67)CC5)CC4)ncc3Cl)cnc2n(CC(F)(F)F)c1=O (stereo not drawn)	Ymin (5 hr)	++++ (Ymin < 30%)

###

Target: N-terminal HiBiT tagged BCL6 (Homo sapiens)
Construct: expressed in transfected cells; host or cells: HT1080 (ATCC CCL-121), stably transduced with lentivirus pLV-UBC-N-HiBiT-BCL6-PGK-puro
Experiment: HiBiT based degradation assay
Format: cell-based
Conditions: HT1080 cells expressing N-terminal HiBiT tagged BCL6; 5 hours of incubation; BCL6 degradation normalized with DMSO control
MEASUREMENT_KIND: Ymin (5 hr)

Worked set:
COMPOUND	RESULT
CNC(=O)COc1cc2cc(Nc3nc(N4CCN(CC5CCN(c6cccc7c(C8CCC(=O)NC8=O)nn(C)c67)CC5)CC4)ncc3F)cnc2n(C)c1=O (centres unmarked) [Compound 135]	++++ (Ymin < 30%)
CNC(=O)COc1cc2cc(Nc3nc(N4CC5(CC[C@@H](Nc6ccc7c(C8CCC(=O)NC8=O)nn(C)c7c6)[C@H](C)C5)C4)ncc3Cl)cnc2n(C(C)C)c1=O (relative stereo) [Compound 180d]	++++ (Ymin < 30%)
CNC(=O)COc1cc2cc(Nc3nc(N4CCCN(CC5CCN(c6ccc7c(C8CCC(=O)NC8=O)nn(C)c7c6)CC5)CC4)ncc3Cl)cnc2n(C)c1=O (centres unmarked) [Compound 111]	+++ (30% ≤ Ymin < 50%)
CNC(=O)COc1cc2cc(Nc3nc(N4CCN(C[C@@H]5CCN(c6ccc7c(C8CCC(=O)NC8=O)nn(C)c7c6)C5)CC4)ncc3Cl)cnc2n(C(C)C)c1=O (some centres unmarked) [Compound 228a]	+++ (30% ≤ Ymin < 50%)
CNC(=O)COc1cc2cc(Nc3nc(N4CCC(O)(CN5CCN(c6cccc7c(C8CCC(=O)NC8=O)nn(C)c67)CC5)CC4)ncc3Cl)cnc2n(C(C)C)c1=O (centres unmarked) [Compound 178]	+++ (30% ≤ Ymin < 50%)

Provide Ymin (5 hr) for all items below, preserving their order.
1. CNC(=O)COc1cc2cc(Nc3nc(N4CCC(Oc5ccc6c(C7CCC(=O)NC7=O)nn(C)c6c5)CC4)ncc3Cl)cnc2n(C)c1=O (centres unmarked) [Compound 147]
2. CNC(=O)COc1cc2cc(Nc3nc(N4CCN([C@H](C)C5CCN(c6cccc7c(C8CCC(=O)NC8=O)nn(C)c67)CC5)CC4)ncc3Cl)cnc2n(C(C)C)c1=O (single isomer, unassigned) [Compound 195b]
3. CNC(=O)COc1cc2cc(Nc3nc(N4CC5(CC[C@H](Nc6ccc7c(C8CCC(=O)NC8=O)nn(C)c7c6)[C@H](C)C5)C4)ncc3Cl)cnc2n(C(C)C)c1=O (relative stereo) [Compound 180b]
4. CNC(=O)COc1cc2cc(Nc3nc(N4CCC([C@H](C)N5CCN(c6cccc7c(C8CCC(=O)NC8=O)nn(C)c67)CC5)CC4)ncc3Cl)cnc2n(C(C)C)c1=O (single isomer, unassigned) [Compound 193b]
5. CNC(=O)COc1cc2cc(Nc3nc(N4C5COCC4CN(CC4CCN(c6cccc7c(C8CCC(=O)NC8=O)nn(C)c67)CC4)C5)ncc3Cl)cnc2n(C(C)C)c1=O (centres unmarked) [Compound 162]

Ans.
["++++ (Ymin < 30%)", "+++ (30% ≤ Ymin < 50%)", "+++ (30% ≤ Ymin < 50%)", "++++ (Ymin < 30%)", "++++ (Ymin < 30%)"]

###

Target: N-terminal HiBiT tagged BCL6 (Homo sapiens)
Construct: expressed in transfected cells; host or cells: HT1080 (ATCC CCL-121), stably transduced with lentivirus pLV-UBC-N-HiBiT-BCL6-PGK-puro
Test: HiBiT based degradation assay
Format: cell-based
Conditions: HT1080 cells expressing N-terminal HiBiT tagged BCL6; 5 hours of incubation; BCL6 degradation normalized with DMSO control

COMPOUND	Ymin (5 hr)
CNC(=O)COc1cc2cc(Nc3nc(N4CC5(CCC(Nc6cccc7c(C8CCC(=O)NC8=O)nn(C)c67)CC5)C4)ncc3Cl)cnc2n(C)c1=O (centres unmarked)	++++ (Ymin < 30%)
CNC(=O)COc1cc2cc(Nc3nc(N4CCN(CC5CCN(c6cccc7c(C8CCC(=O)NC8=O)nn(C)c67)CC5)[C@@H](C(C)(C)O)C4)ncc3Cl)cnc2n(C(C)C)c1=O (some centres unmarked) [Compound 208b]	++++ (Ymin < 30%)

###

Record form. Attribute: DC50. Fill in for each entry.
Molecular target: N-terminal HiBiT tagged BCL6 (Homo sapiens, UniProt P41182)
Construct: expressed in transfected cells; host or cells: HT1080 (ATCC CCL-121), stably transduced with lentivirus pLV-UBC-N-HiBiT-BCL6-PGK-puro
Assay: HiBiT based degradation assay
Format: cell-based
Conditions: HT1080 cells expressing N-terminal HiBiT tagged BCL6; 5 hours of incubation; four-parameter logistic model; read-out: EC50 (5 hr)

COMPOUND	DC50
CNC(=O)COc1cc2cc(Nc3nc(N4CCN(CC5CCN(c6cccc7c6C(=O)N(C6CCC(=O)NC6=O)C7=O)CC5)CC4)ncc3Cl)cnc2n(C)c1=O (centres unmarked) [Compound 102]	10 to 100 nM
CNC(=O)COc1cc2cc(Nc3nc(N4C[C@H]5C[C@@H]4CN5CC4CCN(c5cccc6c(C7CCC(=O)NC7=O)nn(C)c56)CC4)ncc3Cl)cnc2n(C(C)C)c1=O (some centres unmarked) [Compound 174a]	< 10 nM
CNC(=O)COc1cc2cc(Nc3nc(N4CCN(CC5CCN(c6ccc7c(C8CCC(=O)NC8=O)nn(C)c7c6)CC5)CC4)ncc3Cl)cnc2n(C)c1=O (centres unmarked) [Compound 107]	< 10 nM
CNC(=O)COc1cc2cc(Nc3nc(N4CC[C@H](CN5CCN(c6cccc7c(C8CCC(=O)NC8=O)nn(C)c67)CC5)[C@@H](C)C4)ncc3Cl)cnc2n(C(C)C)c1=O (some centres unmarked) [Compound 177d]	10 to 100 nM

Attention now shifts to the item below.
Qu. If you can, please state the reported DC50 value of CNC(=O)COc1cc2cc(Nc3nc(N4CC5(CCC(Nc6cc7c(cc6F)c(C6CCC(=O)NC6=O)nn7C)CC5)C4)ncc3Cl)cnc2n(C(C)C)c1=O (centres unmarked) [Compound 184] .
Ans. < 10 nM

###

Biological target: N-terminal HiBiT tagged BCL6 (Homo sapiens, UniProt P41182)
Construct: expressed in transfected cells; host or cells: HT1080 (ATCC CCL-121), stably transduced with lentivirus pLV-UBC-N-HiBiT-BCL6-PGK-puro
Assay: HiBiT based degradation assay
Format: cell-based
Details: HT1080 cells expressing N-terminal HiBiT tagged BCL6; 5 hours of incubation; four-parameter logistic model; read-out: EC50 (5 hr)
Record form. Attribute: DC50. Fill in for each entry.

Worked set:
COMPOUND	TARGET_OR_TEST_SYSTEM	RESULT
CNC(=O)COc1cc2cc(Nc3nc(N4CC[C@@H](CN5CCC(c6ccc7c(C8CCC(=O)NC8=O)nn(C)c7c6)CC5)[C@@H](F)C4)ncc3Cl)cnc2n(C(C)C)c1=O (relative stereo) [Compound 242b]	N-terminal HiBiT tagged BCL6 (Homo sapiens, UniProt P41182)	< 10 nM
CNC(=O)COc1cc2cc(Nc3nc(N4CCC([C@](C)(O)C5CCN(c6cccc7c(C8CCC(=O)NC8=O)nn(C)c67)CC5)CC4)ncc3Cl)cnc2n(C(C)C)c1=O (stereo in doubt) [Compound 194b]	N-terminal HiBiT tagged BCL6 (Homo sapiens, UniProt P41182)	10 to 100 nM
CNC(=O)COc1cc2cc(Nc3nc(N4CCN(CC5CCN(c6cccc7c(C8CCC(=O)NC8=O)nn(C)c67)CC5)[C@@H](CO)C4)ncc3Cl)cnc2n(C(C)C)c1=O (some centres unmarked) [Compound 146b]	N-terminal HiBiT tagged BCL6 (Homo sapiens, UniProt P41182)	10 to 100 nM
CNC(=O)COc1cc2cc(Nc3nc(N4CC5(CC[C@@H](Nc6ccc7c(C8CCC(=O)NC8=O)nn(C)c7c6)[C@@H](C(F)(F)F)C5)C4)ncc3Cl)cnc2n(C(C)C)c1=O (relative stereo) [Compound 221a]	N-terminal HiBiT tagged BCL6 (Homo sapiens, UniProt P41182)	< 10 nM

Attention now shifts to the item below.
Qu. If you can, please state the reported DC50 value of CNC(=O)COc1cc2cc(Nc3nc(N4CC5(CC[C@H](Oc6ccc7c(C8CCC(=O)NC8=O)nn(C)c7c6)[C@@H](C)C5)C4)ncc3Cl)cnc2n(C(C)C)c1=O (relative stereo) [Compound 185c] .
Ans. < 10 nM
